Kindly state % inhibition for each of the entries shown.
Tested on: human PKK mRNA
METHOD: Antisense inhibition of human PKK mRNA in HepaRG cells, 3,000 nM (Example 1)
Format: cell-based
RUN_PARAMETERS: Table 2; PKK mRNA, HepaRG cells, 3,000 nM, electroporation, ~24 h, relative to untreated control cells
Strand notation (5' to 3'): a small letter for the sugar, then the base; units joined by * are phosphorothioate-linked, units joined directly phosphodiester-linked; [ ] holds rarer units or linkages, { } end groups; capitals alone tell only the bases. e = 2'-O-(2-methoxyethyl) (MOE); [5mC] = 5-methylcytosine; d = 2'-deoxy (DNA)
Please state the figure in %; there is no need to write the unit.

Provide one value: measured % inhibition of 531044 (antisense eG*eG*e[5mC]*eA*eT*dT*d[5mC]*dT*dT*d[5mC]*dA*dT*dT*dT*dG*eT*eT*eA*e[5mC]*e[5mC]) [compound 531044] 68

Provide one value: measured % inhibition of 531061 (antisense eT*eG*e[5mC]*eT*e[5mC]*d[5mC]*d[5mC]*dT*dG*d[5mC]*dG*dG*dG*d[5mC]*dA*e[5mC]*eA*eG*e[5mC]*e[5mC]) [compound 531061] 52

Provide one value: measured % inhibition of 531055 (antisense e[5mC]*e[5mC]*e[5mC]*eT*eT*d[5mC]*dT*dT*dT*dA*dT*dA*dG*d[5mC]*d[5mC]*eA*eG*e[5mC]*eA*e[5mC]) [compound 531055] 68

----------
System: human PKK mRNA
METHOD: Antisense inhibition of human PKK mRNA in HepaRG cells, 3,000 nM (Example 1)
Format: cell-based
RUN_PARAMETERS: Table 4; HepaRG cells, electroporation with 3,000 nM antisense oligonucleotide, approx. 24 hours; PKK mRNA by RT-PCR (RTS3454), relative to untreated control cells
Strand notation (5' to 3'): a small letter for the sugar, then the base; units joined by * are phosphorothioate-linked, units joined directly phosphodiester-linked; [ ] holds rarer units or linkages, { } end groups; capitals alone tell only the bases. e = 2'-O-(2-methoxyethyl) (MOE); [5mC] = 5-methylcytosine; d = 2'-deoxy (DNA)
Kindly state % inhibition for each of the entries shown.
Please state the figure in %; there is no need to write the unit.

Provide one value: measured % inhibition of 531177 (antisense eT*eT*e[5mC]*eT*eT*dG*dT*dA*dA*dA*dT*dG*dT*d[5mC]*dT*eG*eA*eA*eT*eT) [compound 531177] 61

Provide one value: measured % inhibition of 531205 (eA*e[5mC]*eA*eT*eT*dT*dT*dT*dT*dA*dA*dG*dT*dA*d[5mC]*eA*eG*eG*eA*eA; antisense) [compound 531205] 0

Provide one value: measured % inhibition of 531201 (eT*eT*eT*e[5mC]*e[5mC]*dA*dA*dT*dA*d[5mC]*dT*dT*dT*dT*dA*e[5mC]*eA*eA*eA*eT; antisense) [compound 531201] 52

----------
Test system: human PKK mRNA
METHOD: Antisense inhibition of human PKK mRNA in HepaRG cells, 1,000 nM, MOE/deoxy/cEt oligonucleotides (Example 3)
Format: cell-based
RUN_PARAMETERS: Table 30; human PKK mRNA, HepaRG cells, 1,000 nM antisense oligonucleotide
Strand notation (5' to 3'): a small letter for the sugar, then the base; units joined by * are phosphorothioate-linked, units joined directly phosphodiester-linked; [ ] holds rarer units or linkages, { } end groups; capitals alone tell only the bases. e = 2'-O-(2-methoxyethyl) (MOE); k = constrained ethyl (cEt); [5mC] = 5-methylcytosine; d = 2'-deoxy (DNA)
Short version: % inhibition at least 20% is class 1, less is class 0.

Check the entry 548396 (eT*eA*kA*dT*dG*dA*dG*dT*dG*dG*dG*dT*dT*kA*kG*eG; antisense) [compound 548396] : does % inhibition equal or exceed 20%? class 0

Check the entry 531231 (eT*eA*eT*e[5mC]*eA*d[5mC]*dT*dG*dT*dA*d[5mC]*dT*dA*dG*dT*eT*eT*e[5mC]*e[5mC]*eT) [compound 531231] : does % inhibition equal or exceed 20%? class 1

Check the entry 548440 (antisense e[5mC]*e[5mC]*kT*dA*dT*dA*dA*d[5mC]*dA*dG*dT*dA*dT*k[5mC]*kA*e[5mC]) [compound 548440] : does % inhibition equal or exceed 20%? class 1

Check the entry 548422 (antisense eG*eT*kA*dT*d[5mC]*dA*d[5mC]*dT*dG*dT*d[5mC]*d[5mC]*dT*kA*kT*eA) [compound 548422] : does % inhibition equal or exceed 20%? class 1

Check the entry 548408 (antisense eT*eA*kT*d[5mC]*dA*d[5mC]*dT*dG*dT*dA*d[5mC]*dT*dA*kG*kT*eT) [compound 548408] : does % inhibition equal or exceed 20%? class 1

Check the entry 548442 (antisense eT*eT*k[5mC]*d[5mC]*dT*dA*dT*dA*dA*d[5mC]*dA*dG*dT*kA*kT*e[5mC]) [compound 548442] : does % inhibition equal or exceed 20%? class 0

Check the entry 548457 (e[5mC]*eT*kA*dT*dA*dA*d[5mC]*dA*dG*dT*dA*dT*d[5mC]*kA*k[5mC]*e[5mC]; antisense) [compound 548457] : does % inhibition equal or exceed 20%? class 0

Check the entry 548383 (eG*eT*k[5mC]*dT*d[5mC]*dG*dA*dT*dG*dG*d[5mC]*dA*dA*kG*k[5mC]*eT; antisense) [compound 548383] : does % inhibition equal or exceed 20%? class 1

Check the entry 548451 (eG*eT*k[5mC]*d[5mC]*dT*dA*dT*dA*dA*d[5mC]*dT*dA*dT*kA*kA*e[5mC]; antisense) [compound 548451] : does % inhibition equal or exceed 20%? class 0

Check the entry 548400 (eG*eG*kG*d[5mC]*dT*d[5mC]*d[5mC]*dT*dA*dT*dT*d[5mC]*d[5mC]*kA*k[5mC]*e[5mC]; antisense) [compound 548400] : does % inhibition equal or exceed 20%? class 0

Check the entry 548454 (eA*e[5mC]*kT*dG*dT*dA*d[5mC]*d[5mC]*dT*dA*dT*dA*dA*k[5mC]*kA*eG; antisense) [compound 548454] : does % inhibition equal or exceed 20%? class 0

----------
Kindly state percent inhibition of PKK mRNA, 0.33 μM for each of the entries shown.
Tested on: human PKK mRNA
METHOD: Dose-dependent antisense inhibition of human PKK in HepaRG cells, 0.11-3.00 uM (Example 6)
Format: cell-based
RUN_PARAMETERS: electroporation, 0.33 μM, approx. 16 hours, relative to untreated control cells
Strand notation (5' to 3'): a small letter for the sugar, then the base; units joined by * are phosphorothioate-linked, units joined directly phosphodiester-linked; [ ] holds rarer units or linkages, { } end groups; capitals alone tell only the bases. e = 2'-O-(2-methoxyethyl) (MOE); k = constrained ethyl (cEt); [5mC] = 5-methylcytosine; d = 2'-deoxy (DNA)
Please state the figure in %; there is no need to write the unit.

Provide one value: measured percent inhibition of PKK mRNA, 0.33 μM of 548024 (eG*e[5mC]*kT*dG*dT*d[5mC]*dA*dG*d[5mC]*dT*dT*d[5mC]*dA*k[5mC]*k[5mC]*eT; antisense) [compound 548024] 57

Provide one value: measured percent inhibition of PKK mRNA, 0.33 μM of 547835 (e[5mC]*e[5mC]*kA*dG*dA*dA*dA*d[5mC]*dT*dG*d[5mC]*dA*d[5mC]*k[5mC]*kT*eG; antisense) [compound 547835] 27

Provide one value: measured percent inhibition of PKK mRNA, 0.33 μM of 547857 (antisense e[5mC]*eT*k[5mC]*dA*dT*dA*dT*d[5mC]*dA*dA*d[5mC]*dT*d[5mC]*k[5mC]*kT*eT) [compound 547857] 66

Provide one value: measured percent inhibition of PKK mRNA, 0.33 μM of 548410 (antisense eA*eG*kT*dA*dT*d[5mC]*dA*d[5mC]*dT*dG*dT*dA*d[5mC]*kT*kA*eG) [compound 548410] 58

Provide one value: measured percent inhibition of PKK mRNA, 0.33 μM of 547851 (antisense eT*eA*kA*dA*dT*dG*dT*d[5mC]*dT*d[5mC]*dG*dA*dT*kG*kG*e[5mC]) [compound 547851] 46

Provide one value: measured percent inhibition of PKK mRNA, 0.33 μM of 547877 (antisense eA*eA*k[5mC]*dA*d[5mC]*dT*dG*d[5mC]*dT*dA*dA*d[5mC]*d[5mC]*kT*kT*eA) [compound 547877] 66

----------
System: human PKK mRNA
METHOD: Antisense inhibition of human PKK mRNA in HepaRG cells, 1,000 nM, MOE/deoxy/cEt oligonucleotides (Example 3)
Assay type: cell-based
RUN_PARAMETERS: HepaRG cells, 1,000 nM antisense oligonucleotide, Table 29
Strand notation (5' to 3'): a small letter for the sugar, then the base; units joined by * are phosphorothioate-linked, units joined directly phosphodiester-linked; [ ] holds rarer units or linkages, { } end groups; capitals alone tell only the bases. e = 2'-O-(2-methoxyethyl) (MOE); k = constrained ethyl (cEt); [5mC] = 5-methylcytosine; d = 2'-deoxy (DNA)
Kindly state % inhibition for each of the entries shown.
Please state the figure in %; there is no need to write the unit.

Print human PKK mRNA % inhibition for 548586 (eT*e[5mC]*k[5mC]*dA*dA*d[5mC]*dT*dA*d[5mC]*dA*dG*dG*dA*k[5mC]*kT*e[5mC]; antisense) [compound 548586] . 39

Print human PKK mRNA % inhibition for 548594 (e[5mC]*e[5mC]*k[5mC]*dT*dT*d[5mC]*dT*dA*dA*d[5mC]*d[5mC]*dA*dA*kG*kG*eA; antisense) [compound 548594] . 30

Print human PKK mRNA % inhibition for 548602 (eG*eG*kT*dG*dG*dT*dG*dG*dA*dA*dT*dT*dG*kG*kT*eG; antisense) [compound 548602] . 20

Print human PKK mRNA % inhibition for 548569 (eA*e[5mC]*kT*d[5mC]*dA*dT*dT*dG*dG*dT*d[5mC]*dT*dA*k[5mC]*kA*eG; antisense) [compound 548569] . 41

Print human PKK mRNA % inhibition for 548578 (e[5mC]*eA*kT*dG*dG*d[5mC]*dT*dA*dT*dT*dG*d[5mC]*dT*kT*k[5mC]*e[5mC]; antisense) [compound 548578] . 73

Print human PKK mRNA % inhibition for 548593 (e[5mC]*eA*kT*d[5mC]*d[5mC]*d[5mC]*dT*dG*dA*d[5mC]*dA*dG*dG*kT*k[5mC]*e[5mC]; antisense) [compound 548593] . 61
